Values compiled from patent US20210024545A1.

# Measurement Target: human TASK-3 (Homo sapiens)
# Sequence (Q9NPC2 whole entry): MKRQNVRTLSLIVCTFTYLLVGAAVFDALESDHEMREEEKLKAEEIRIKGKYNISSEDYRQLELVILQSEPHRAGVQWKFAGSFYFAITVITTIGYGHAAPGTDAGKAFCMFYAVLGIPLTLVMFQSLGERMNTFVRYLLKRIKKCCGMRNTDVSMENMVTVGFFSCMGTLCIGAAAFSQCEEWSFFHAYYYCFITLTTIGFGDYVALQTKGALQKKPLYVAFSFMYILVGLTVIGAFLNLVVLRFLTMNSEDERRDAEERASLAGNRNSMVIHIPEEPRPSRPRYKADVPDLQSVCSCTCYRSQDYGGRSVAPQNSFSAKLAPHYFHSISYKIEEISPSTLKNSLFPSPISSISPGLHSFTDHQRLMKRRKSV
# Assay Details: Inhibition of recombinant TASK-3 in stably transfected CHO cells, KCl-induced depolarization, voltage-sensitive dye (B-2)
# Assay type: cell-based
# Parameters: expressed in transfected cells; host or cells: stably transfected CHO cells
# Reported Conditions: depolarization induced by 40 mM potassium chloride, some mean values from multiple determinations
pIC50: −log10 of the molar value.
Measured Endpoint: pIC50

| Compound | Measured Endpoint | Readout Value |
| --- | --- | --- |
| CC(C)c1ccc(-c2nc3ccccn3c2CN2CC3CCC2CN3C(=O)C2CCCC2)cc1 (single isomer, unassigned) [Example 62] | pIC50 | 6.12 |
| COc1cccc(C(=O)N2C3CCC2CN(Cc2c(-c4ccc(Br)cc4)nc4ccccn24)C3)n1 | pIC50 | 7.85 |
| O=C(c1cc(F)ccc1Cl)N1C2CCC1CN(Cc1c(-c3ccc(Cl)cc3)nc3ccccn13)C2 | pIC50 | 6.96 |
| COc1ccc(Cl)c(C(=O)N2C3COCC2CN(Cc2c(-c4ccc(Cl)cc4)nc4ccccn24)C3)c1 | pIC50 | 7.64 |
| Cc1ccc(F)cc1C(=O)N1C2CCC1CN(Cc1c(-c3ccc(Cl)cc3)nc3ccccn13)C2 | pIC50 | 7.48 |
| O=C(C1CCCC1)N1CC2CCC1CN2Cc1c(-c2ccc(Cl)cc2)nc2ccccn12 (single isomer, unassigned) [Example 38] | pIC50 | 6.42 |
| O=C(N1CCCCC1)N1C2COCC1CN(Cc1c(-c3ccc(Cl)cc3)nc3ccccn13)C2 | pIC50 | 7.22 |
| CC(C)N(C(=O)N1C2COCC1CN(Cc1c(-c3ccc(Cl)cc3)nc3ccccn13)C2)C(C)C | pIC50 | 7.72 |
| CC(C)c1ccccc1C(=O)N1C2COCC1CN(Cc1c(-c3ccc(Cl)cc3)nc3ccccn13)C2 | pIC50 | 8.02 |
| Cc1csc(C(=O)N2C3CCC2CN(Cc2c(-c4ccc(Cl)cc4)nc4ccccn24)C3)n1 | pIC50 | 8.57 |
| O=C(OC1CCCCC1)N1C2CCC1CN(Cc1c(-c3ccc(Cl)cc3)nc3ccccn13)C2 | pIC50 | 6.70 |
| CC(C)N(C(=O)N1C2CCC1CN(Cc1c(-c3ccc(Cl)cc3)nc3ccccn13)C2)c1ccc(Cl)cc1 | pIC50 | 6.00 |
| O=C(N1CCOCC1)N1C2COCC1CN(Cc1c(-c3ccc(Cl)cc3)nc3ccccn13)C2 | pIC50 | 6.28 |
| COc1cccc(C(=O)N2C3CCC2CN(Cc2c(-c4ccc(Cl)cc4)nc4ccccn24)C3)c1 | pIC50 | 7.02 |
| O=C(C1CCCCC1)N1CC2CCC1CN2Cc1c(-c2ccc(Cl)cc2)nc2ccccn12 (single isomer, unassigned) | pIC50 | 7.77 |

###

# Measurement Target: human TASK-1 (Homo sapiens)
# Sequence (O14649 whole entry): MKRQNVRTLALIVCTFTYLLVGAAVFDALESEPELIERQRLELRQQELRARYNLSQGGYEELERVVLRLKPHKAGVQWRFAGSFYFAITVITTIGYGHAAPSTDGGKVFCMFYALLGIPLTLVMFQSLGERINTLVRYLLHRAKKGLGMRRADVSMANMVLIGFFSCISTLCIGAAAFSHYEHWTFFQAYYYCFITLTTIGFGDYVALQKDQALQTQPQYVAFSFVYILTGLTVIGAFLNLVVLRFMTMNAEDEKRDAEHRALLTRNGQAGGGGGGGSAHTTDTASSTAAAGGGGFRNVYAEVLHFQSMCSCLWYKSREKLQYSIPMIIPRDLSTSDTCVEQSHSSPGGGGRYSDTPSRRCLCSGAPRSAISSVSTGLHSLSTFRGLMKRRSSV
# Assay Details: Inhibition of recombinant TASK-1 in stably transfected CHO cells, KCl-induced depolarization, voltage-sensitive dye (B-2)
# Format: cell-based
# Design: expressed in transfected cells; host or cells: stably transfected CHO cells
# Reported Conditions: depolarization induced by 40 mM potassium chloride, some mean values from multiple determinations
Measured Endpoint: IC50 (µM)

| Compound | Measurement Target | Unit Text | Readout Value |
| --- | --- | --- | --- |
| COc1ccc(F)c(C(=O)N2CC3CCC2CN3Cc2c(-c3ccc(Cl)cn3)nc3ccccn23)n1 (single isomer, unassigned) [Example 66] | human TASK-1 (Homo sapiens) | µM | 1.1 |
| COC(=O)N1C2CCC1CN(Cc1c(-c3ccc(Cl)cc3)nc3ccccn13)C2 [Example 184] | human TASK-1 (Homo sapiens) | µM | 2.9 |
| CC(C)c1cccc(C(=O)N2C3COCC2CN(Cc2c(-c4ccc(Cl)cc4)nc4ccccn24)C3)c1 [Example 76] | human TASK-1 (Homo sapiens) | µM | 0.24 |
| COc1cccc(C(=O)N2C3CCC2CN(Cc2c(-c4ccc(Cl)cn4)nc4ccccn24)C3)n1 [Example 33] | human TASK-1 (Homo sapiens) | µM | 0.14 |
